Data origin: the supplement of paper PMC9732359

Recorded protein stability index values for a group of sequences are listed next.
Assay: protein stability index of a GFP-peptide fusion (yeast GPS) (PSI 1-4); higher = more stable; sorted into four equal gates, so the index is relative within each strain
Settings: doa10∆
experimental.readout: protein stability index

> print(dat)
                      residue.sequence  measured.number
 1            IATDGGRICRPLIIVSD [RET1]             2.01
 2            ELDEHTTQIDLFRIFSM [BRR2]             2.25
 3           VQNSTLAQLTSKLIPEV [RPS1B]             2.19
 4          RKANREEKLKANKEKKR [RPL24B]             2.86
 5            SSVKTCFKPMSLTSKRL [RIP1]             3.02
 6            EKQTPNKKDKKKEEEEQ [RPN1]                3
 7            RTKNLVSKMEKAEKTLK [SMC4]             2.91
 8            AKALESLASCLRSTEYS [POP1]             3.08
 9            EENFEATRTLVASIQND [YCG1]             3.03
10    LDESSEQKNTAKEELNG [YIL149C/MLP2]              3.1
11            SIIGNKNNNYTWEECVF [REC8]             2.78
12            SFLEGSKALNSILESSM [RGR1]             1.81
13            GGLTKQIKEIKEVIELP [RPT6]             3.74
14            KGSRFISTLQVKLYGRE [RPB2]             2.06
15            IGTADIFIRQLKENEEN [BRR2]             3.61
16            KTKWDRKPMGKRINFEK [POP1]             2.84
17            DFDDSTAQEINFKMLVL [IRR1]             2.59
18            VPGMPAPIKKIIERYIK [PRP8]             3.37
19            IEGVVILKKNPDYREEE [RPN1]             3.06
20  RTDQYTIDNIDSENFSF [YMR129W/POM152]             2.88
21           TEAAFTKLDQVWGSETV [RPL4A]             1.84
22            AAQDVWNRADNHFKDTY [FAS1]             3.05
23            RSPEEIRRTFNIVNDFT [SKP1]             1.36
24           MMQDPQMQQMAKQFGMG [SRP54]             3.15
25           YFKMFPASKHDKEVVYF [RPC34]             2.72
26            STSYAIKKKDELERVAK [RPS5]             3.44
27            SWSSSAAVIMRCKIYFF [PCI8]             1.24
28           DEFYINVDKNLNEIKEH [RPN14]             2.51
29            EWYLSHLCSGILSSVNR [SRB8]             1.41
30           HCGALNGVVKKAAAGAG [RPO31]             1.35
31    TSEMKVLSIPPANHLQS [YGL100W/SEH1]             2.64
32            NELTDAIALAVRLGEED [RPN1]             2.98
33           KAKRAKTGSASTVKGSV [TAF14]              2.9
34            NMTTIADRNDDDEGSFA [SRB6]             3.72
35            KYPARRIHTNDNDIMNL [SSN3]             2.83
36            MAAALPNPTPSMINSVS [PGD1]             1.77
37            VLVGSCAYTGTGDVLLI [RPN1]             3.13
38  LGLYVGVDDQILATNSL [YJL039C/NUP192]             2.64
39           PKSKSLPNEMSQNDGFV [RPO31]                3
40            VINLKQIAKFVVGLGER [RPT1]             2.75
41          FQNSKSASLFKQRKNPR [RPL24A]             2.11
42            FPPPSVAARAEILRIHS [RPT6]             1.72
43            QMAVHIATDGGRICRPL [RET1]             2.66
44            NYHPNASITPYKLVNKN [RPN4]             1.84
45            SNDLCSQIFDQLKDMQT [SRB8]             2.72
46           DFSARTVISGDPNLELD [RPO21]             3.29
47            EKVNNNATLTPNDSNDE [SWI1]             3.26
48            HARTAAVTHNLYYDEDI [PUP2]             3.21
49            QEASKQYTKDEQFYTKD [RPN2]             3.41
50           CAEGIFVVKLDTVDRLI [GAL11]             2.89
51            NSIKNVPPILIILPLDN [SSN2]             2.01
52            LQKEKELHKEGTISKLE [SMC2]             2.89
53            DYYQSIYAKYGAKGSTL [FAS2]             2.85
54          ERRVLLSAPLSKELRAQ [RPL26B]             2.87
55            YVLSTAVEFESVPLRKG [BRR2]              1.7
56            QLFHSMSIVFGDKFSED [UBP6]             1.62
57            SADDDVNNGNIPSQRGT [SIR3]             2.97
58            ETTLGEMAEKIDFTLLN [PRP8]             3.12
59           LKMQQQQQQQQQQQQQQ [GAL11]             2.69
60            QSNEDTFLPSYMKFSNK [RRI2]             2.84
61           FGNIQKVVNFWLLHNGF [RPO21]             2.26
